Test: Solubility study of AST-3424 (shaking at 25° C., HPLC content)
Assay type: physicochemical
Conditions: phosphate buffer, 25 °C, pH 7.4, aqueous buffer, thermodynamic from solid, pH 7.4 Phosphate buffer, 24 h, read-out: Content (solubility test)
Procedure: An appropriate amount of AST-3424 (hereinafter called active pharmaceutical ingredients or API) was taken and placed in a suitable container containing 40 ml of the mentioned-above solutions (20 ml for organic solvents) respectively until excess oil droplets of AST-3424 existed in the solution. Samples were put in a constant temperature shaking incubator at 25° C. and shaken at a proper speed (100 rpm). […] It should be noted that the dilution ratio after test was accurately recorded. […]
readout: solubility at 24 h (mg/mL)
The reply should be a number in mg/mL, with the unit left off.

Quick note, solubility at 24 h for C[C@H](OP(=O)(N1CC1)N1CC1)c1ccc([N+](=O)[O-])c(Oc2cccc(C(=O)N(C)C)c2)c1 [AST-3424] landed at 23.7
